- subject_of_test: 5-hydroxytryptamine receptor 1A (Homo sapiens) (UniProt P08908)
- Sequence (P08908 whole entry, looked up): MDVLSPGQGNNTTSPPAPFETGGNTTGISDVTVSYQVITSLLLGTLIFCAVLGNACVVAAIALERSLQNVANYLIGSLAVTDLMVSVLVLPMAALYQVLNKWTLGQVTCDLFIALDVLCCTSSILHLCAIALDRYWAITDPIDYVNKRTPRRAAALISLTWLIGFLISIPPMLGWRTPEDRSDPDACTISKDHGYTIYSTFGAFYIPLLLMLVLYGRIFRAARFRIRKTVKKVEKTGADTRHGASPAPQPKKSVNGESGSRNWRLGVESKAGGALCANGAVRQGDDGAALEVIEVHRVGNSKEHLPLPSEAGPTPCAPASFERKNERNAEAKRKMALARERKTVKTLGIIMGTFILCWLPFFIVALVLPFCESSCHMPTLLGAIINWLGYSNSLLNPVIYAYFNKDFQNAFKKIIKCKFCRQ
- assay_text: human 5-HT1a agonist potency, dose response, cell-based, CHO, Ga15 NFAT-bla reporter (AID 613)
- condition_details: CHO 5-HT1a Ga15 NFAT-bla reporter, agonist FRET
Activity calls are given as the source filed them.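 The calls were made as follows: active = EC50 at or below 10 micromolar; inactive = EC50 above 10 micromolar.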
measurement_kind: EC50

Recorded results for 10 molecules are shown here.
{"molecule": "N#C/C(=C(/O)COC(=O)Cc1c[nH]c2ccccc12)c1nc2ccccc2[nH]1", "subject_of_test": "5-hydroxytryptamine receptor 1A (Homo sapiens) (UniProt P08908)", "EC50": "> 99 µM (inactive)"}
{"molecule": "CC(C)N1CC=C2C(C#N)=C(N)C(C#N)(C#N)C(c3ccccc3)C2C1 (stereo not given)", "subject_of_test": "5-hydroxytryptamine receptor 1A (Homo sapiens) (UniProt P08908)", "EC50": "inactive"}
{"molecule": "Cc1ccc(N2C(=O)CC(N3CCN(C4CCc5ccccc5C4)CC3)C2=O)cc1 (stereo not given)", "subject_of_test": "5-hydroxytryptamine receptor 1A (Homo sapiens) (UniProt P08908)", "EC50": "> 99 µM (inactive)"}
{"molecule": "COc1ccccc1N=c1oc2cc(O)ccc2cc1C(=O)NCC1CCCO1 (stereo not given)", "subject_of_test": "5-hydroxytryptamine receptor 1A (Homo sapiens) (UniProt P08908)", "EC50": "inactive"}
{"molecule": "Cc1ccc(C2C3CN(C(C)C)CC=C3C(C#N)=C(N)C2(C#N)C#N)cc1 (stereo not given)", "subject_of_test": "5-hydroxytryptamine receptor 1A (Homo sapiens) (UniProt P08908)", "EC50": "inactive"}
{"molecule": "CCSCCOC(=O)C1=C(C)NC(=O)NC1c1ccc2c(c1)OCO2 (stereo not given)", "subject_of_test": "5-hydroxytryptamine receptor 1A (Homo sapiens) (UniProt P08908)", "EC50": "> 99 µM (inactive)"}
{"molecule": "CCCCCCc1cc2cc(C(=O)NC)c(=N)oc2cc1O", "subject_of_test": "5-hydroxytryptamine receptor 1A (Homo sapiens) (UniProt P08908)", "EC50": "inactive"}
{"molecule": "C=CCOc1cccc(C2C(C(=O)c3ccco3)=C(O)C(=O)N2CCN(CC)CC)c1 (stereo not given)", "subject_of_test": "5-hydroxytryptamine receptor 1A (Homo sapiens) (UniProt P08908)", "EC50": "> 99 µM (inactive)"}
{"molecule": "CCCCOc1ccc(C2C3CN(C(=O)OCC)CC=C3C(C#N)=C(N)C2(C#N)C#N)cc1OC (stereo not given)", "subject_of_test": "5-hydroxytryptamine receptor 1A (Homo sapiens) (UniProt P08908)", "EC50": "> 99 µM (inactive)"}
{"molecule": "Cc1ccc(N=c2oc3cc(O)ccc3cc2C(N)=O)cc1", "subject_of_test": "5-hydroxytryptamine receptor 1A (Homo sapiens) (UniProt P08908)", "EC50": "inactive"}

Give recorded EC50. `NC(=O)c1cc2ccc(O)cc2oc1=NCc1ccccc1`
inactive

Retrieve EC50 measured for `NC(=O)c1cc2ccc(O)cc2oc1=Nc1ccccc1` and print it.
inactive

Indicate the recorded EC50 value for this molecule: `COc1ccccc1N=c1oc2cc(O)ccc2cc1C(N)=O`
inactive

Annotate the molecule COCCOC(=O)C1=C(C)Nc2nc(C)nn2C1c1ccc(F)cc1 (stereo not given) with its measured EC50.
> 99 µM (inactive)

Consider the molecule CN(C)CCCN1C(=O)C(=O)/C(=C(/O)c2ccc3c(c2)OCCO3)C1c1ccccn1 (stereo not given) and give its recorded EC50.
> 99 µM (inactive)

Source of measurements: PubChem BioAssay AID613
